B1: library; numbered along this chain (parent)
chain: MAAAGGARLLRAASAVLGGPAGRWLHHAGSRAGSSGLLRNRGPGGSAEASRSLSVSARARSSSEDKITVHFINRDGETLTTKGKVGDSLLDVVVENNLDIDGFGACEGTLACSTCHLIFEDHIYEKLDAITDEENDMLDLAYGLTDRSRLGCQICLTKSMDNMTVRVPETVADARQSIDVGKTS

Variants of: B1
Assay: scaled log2 fold change in cell abundance, elesclomol vs control (0 = silent mean, 1 = nonsense mean) (scaled log2 ratio); higher = higher viability under elesclomol (loss of FDX1 cuproptosis function);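 note: variant abundance is its share of total variant reads in each endpoint sample, from next-generation sequencing of the integrated ORF PCR-amplified out of genomic DNA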
Settings: with HEK293T FDX1 KO; elesclomol 40 nM; glucose 10 mM; 11 days
Decide using scaled log2 fold change: a value greater than or equal to 0.4 is 1 (yes), a smaller one is 0 (no).

* F119C | 1 (yes)
* H27V | 0 (no)
* I67E | 1 (yes)

Is the recorded value of scaled log2 fold change equal to or greater than 0.4 for this variant? `Y124Q`
0 (no)

Does the reported scaled log2 fold change for `R39A` fall at or above the 0.4 mark?
0 (no)

Quick check: does `E77G` have scaled log2 fold change greater than or equal to 0.4?
0 (no)

Check if scaled log2 fold change >= 0.4 (inclusive). Item: `V69W`
1 (yes)

Hello, I need to know if `T109I` has measured scaled log2 fold change not below 0.4. Thanks!
0 (no)

Test whether the variant `D128I` records scaled log2 fold change of 0.4 or higher.
0 (no)
